Cited source for all entries: patent US20260306460A1

Recorded Open Field Test Time in Center for the following compounds
tested on: naturally aged mice; experiment: Anti-aging evaluation in naturally aged mice, Example 31, Table 55; type: in vivo, mouse; details: open field test, untreated = 100%;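 note: Vehicle-dosed control mice received solution alone at matching volume, values compare test-compound-treated aged mice against that control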
OBSERVED_PROPERTY: Open Field Test Time in Center

- COMPOUND: "O=C1C2CCN(CC2)C1(CO)COCc1ccccc1 (stereo not shown) [LX-5711]"
  REPORTED: "191%"
- COMPOUND: "[2H]C12CCN(CC1)C(CO)(COC)C2=O (stereo not shown) [LX-5722]"
  REPORTED: "222%"
- COMPOUND: "CCn1c(C#CCNc2ccccc2)cc2cc(CNC)ccc21 [LX-905]"
  REPORTED: "241%"
- COMPOUND: "O=C(NCc1ccncc1)C12CC3CC(C1)CC(c1ccc(Cl)cc1)(C3)C2 [LX-3106, Opaganib]"
  REPORTED: "193%"
- COMPOUND: "CN(C)c1cccc(-c2c3c(=O)n(-c4ccccc4Cl)[nH]c3cc(=O)n2C)c1 [LX-9744, Setanaxib]"
  REPORTED: "171%"
- COMPOUND: "C[C@@H]1CC[C@@]23C[C@H](O)C(=O)[C@@]2(O)[C@]1(C)[C@H](OC(=O)CCl)C[C@@H](C1=CCn2c(=O)n(-c4ccccc4)c(=O)n2C1)[C@@H]3C [LX-1801]"
  REPORTED: "287%"
- COMPOUND: "C#CC(=O)N1[C@@H](CCCC)Cc2cc(OC)ccc2[C@@H]1c1ccc(NC23CC4CC(CC(C4)C2)C3)cc1 [LX-5411]"
  REPORTED: "214%"
- COMPOUND: "CCc1nc(C(N)=O)c(Nc2ccc(N3CCC(N4CCN(C)CC4)CC3)c(OC)c2)nc1NC1CCOCC1 [LX-3303, Gilteritinib]"
  REPORTED: "186%"
- COMPOUND: "S=C(N/N=C1\\CCCc2cccnc21)N1CCN(c2ccccn2)CC1 [LX-801]"
  REPORTED: "222%"
- COMPOUND: "CCNCc1nc2c(O)c(Cl)cc(Cl)c2c(=O)n1C [LX-9421]"
  REPORTED: "222%"
- COMPOUND: "C[C@H](N)C(=O)N1C[C@H](CCCB(O)O)[C@](N)(C(=O)O)C1 [LX-3107, Numidargistat]"
  REPORTED: "167%"
- COMPOUND: "Cc1[nH]nc(C(F)(F)F)c1Cc1sc2c(c1C(=O)N1C[C@](C)(O)CO1)c(=O)n(C)c(=O)n2C(C)C [LX-3203]"
  REPORTED: "183%"
- COMPOUND: "C[C@@H](Nc1nc(N[C@H](C)C(F)(F)F)nc(-c2cccc(Cl)n2)n1)C(F)(F)F [LX-8726, Vorasidenib]"
  REPORTED: "276%"
- COMPOUND: "O=C(C(C[N+](=O)[O-])=NO)N1CCN(C(c2ccc(Cl)cc2)c2ccc(Cl)cc2)CC1 [LX-403]"
  REPORTED: "237%"
- COMPOUND: "CCN(CC1C(=O)C2CCN1CC2)C(=O)C(Cl)(Cl)Cl (stereo not shown) [LX-5702]"
  REPORTED: "211%"
- COMPOUND: "Cc1nc(-c2nc(-c3ccc(OC(F)(F)F)cc3)no2)nn1Cc1cccc(N2CCC(S(C)(=O)=O)CC2)c1 [LX-3200]"
  REPORTED: "188%"
- COMPOUND: "[2H]C([2H])([2H])OCC1(CO)C(=O)C2CCN1CC2 (stereo not shown) [LX-5721]"
  REPORTED: "218%"
- COMPOUND: "Cc1nnc(-c2cc(C(=O)N3CCC(c4ccc(C#N)cc4)CC3)c(C)cc2C2CCC2)[nH]1 [LX-305]"
  REPORTED: "157%"
- COMPOUND: "COC[C@]1(CO)C(=O)[C@H]2CC[N@]1[C@H](C)C2 [LX-5731]"
  REPORTED: "237%"
- COMPOUND: "CC/C=C\\C/C=C\\C/C=C\\C/C=C\\C/C=C\\C/C=C\\CCC(=O)O [LX-2702, Docosahexaenoic acid]"
  REPORTED: "211%"
- COMPOUND: "CC12CCN(CC1)C(CN(C1CC1)S(C)(=O)=O)C2=O (stereo not shown) [LX-5707]"
  REPORTED: "199%"
- COMPOUND: "C[N+](C)(C)CCO.C[N+](C)(C)CCO.[SH-].[SH-].[S]=[Mo]=[S] [LX-2601]"
  REPORTED: "166%"
- COMPOUND: "CN(Cc1cnc2nc(N)nc(N)c2n1)c1ccc(C(=O)N[C@@H](CCC(=O)O)C(=O)O)cc1 [LX-2901, Methotrexate]"
  REPORTED: "167%"
- COMPOUND: "C[C@@H](C(=O)Nc1ccc(Cl)cc1)[C@H]1CC[C@@H](c2ccnc3ccc(F)cc32)CC1 [LX-8805, Linrodostat]"
  REPORTED: "217%"
- COMPOUND: "CN(NC(=O)CC(=O)NN(C)C(=S)c1ccccc1)C(=S)c1ccccc1 [LX-6501, Elesclomol]"
  REPORTED: "214%"
- COMPOUND: "O=C(O)c1cc(/N=N/c2ccc(S(=O)(=O)Nc3ccccn3)cc2)ccc1O [LX-1302, Sulfasalazine]"
  REPORTED: "201%"
- COMPOUND: "CCN(CC)C(=S)SSC(=S)N(CC)CC [LX-1601, Disulfiram]"
  REPORTED: "228%"
- COMPOUND: "CN[C@H](CC(C)C)C(=O)N[C@H]1C(=O)N[C@@H](CC(N)=O)C(=O)N[C@H]2C(=O)N[C@H]3C(=O)N[C@H](C(=O)N[C@H](C(=O)O)c4cc(O)cc(O)c4-c4cc3ccc4O)[C@H](O)c3ccc(c(Cl)c3)Oc3cc2cc(c3O[C@@H]2O[C@H](CO)[C@@H](O)[C@H](O)[C@H]2O[C@H]2C[C@](C)(N)[C@H](O)[C@H](C)O2)Oc2ccc(cc2Cl)[C@H]1O [LX-5424, Vancomycin]"
  REPORTED: "191%"
- COMPOUND: "COc1cc(OC)cc(N(CCNC(C)C)c2ccc3ncc(-c4cnn(C)c4)nc3c2)c1 [LX-1903, Erdafitinib]"
  REPORTED: "161%"
- COMPOUND: "NCC(=O)CCC(=O)O [LX-1103, 5-Aminolevulinic acid]"
  REPORTED: "183%"
- COMPOUND: "Fc1ccc(-n2cc(CCCCN3CCC4(CC3)OCc3ccccc34)c3ccccc32)cc1 [LX-1102, Siramesine]"
  REPORTED: "148%"
